- System: MCF7 breast
- PROTOCOL TEXT: NCI-60 one-dose screen, 48 h (100 = growth as untreated, 0 = no growth, -100 = all killed)
- TEST CONTEXT: 10 µM unless noted
About 83,000 compounds went through this panel and 20% of them were active in at least one assay; those are over-represented in the sample as a whole.
// label = t if growth is not less than 90%, otherwise f

A selection of reference data follows.
CCC1(C(N)=O)CC2C=CC1CC2 (stereo unspecified) : t
Cc1cc(NCCN(C(C)C)C(C)C)nc(/N=C(\N)Nc2ccc(Cl)c(C(F)(F)F)c2)n1 : f
O=C(Nc1ccc(-n2ccc3c(NC(=O)c4ccccc4)nccc32)cc1)c1cccc(C(F)(F)F)c1 : f
OCCOCC(F)(F)F : t

Shifting focus to the compound that follows.
Q. Please indicate if the recorded growth for CS(=O)(=O)Nc1cccc(-c2ccc3ncnc(Nc4cncc(Cl)c4)c3c2)c1 meets or exceeds 90%.
A. f

* * *

- Tested on: SF-295 CNS
- PROTOCOL TEXT: NCI-60 one-dose screen, 48 h
- TEST CONTEXT: 10 µM unless noted
About 83,000 compounds went through this panel and 20% of them were active in at least one assay; those are over-represented in the sample as a whole. The source made the active and inactive calls. The calls were made as follows: active = growth percent below 10; inactive = the rest.
Entry note: the call must match one of true = active, false = inactive

A selection of reference data follows.
Cc1ccc2[nH]c3nc4cccnc4c(C)c3c2c1 : false
Cc1ccn2cc(Cc3cc(=O)oc4c3ccc3ccccc34)c(=O)nc2c1 : false
COc1cc(-c2nc3sc(C)cn3c2/C=C2\C(=O)Nc3ccccc32)c(Br)c(OC)c1OC : false
Nc1nccc2c1ccn2-c1ccc(NC(=O)c2ccc(N3CCOCC3)c(C(F)(F)F)c2)cc1 : true
O=C(O)c1cn(C2CC2)c2cc(N3CCN(C(=O)CSc4nc(NS(=O)(=O)c5ccccc5)cc(=O)[nH]4)CC3)c(F)cc2c1=O : false

Q. Could you check what this test reported for N#CC(C#N)=C(C#N)c1c[nH]c2ccccc12 ?
A. false

* * *

I'd appreciate it if you could supply growth values for the items below.
- Tested on: UACC-62 melanoma
- PROTOCOL TEXT: NCI-60 one-dose screen, 48 h (100 = growth as untreated, 0 = no growth, -100 = all killed)
- TEST CONTEXT: 10 µM unless noted
The panel holds about 83,000 compounds, 20% with a hit somewhere; the sample as a whole holds those more often.
Answers are plain numbers, in %.

COc1cc(NC(C)CCCN2C(=O)c3ccccc3C2=O)c2nc(C)ccc2c1OC (stereo not drawn) : 74.9
CC(=O)N[C@@H](CNC(=O)c1cc(NC(=O)c2cc(NC(=O)c3cc(NC(=O)c4nccn4C)cn3C)cn2C)cn1C)CC(=O)Nc1cn(C)c(C(=O)Nc2cc(C(=O)Nc3cc(C(=O)Nc4cc(C(=O)NCCCN(C)CCCNC(=O)c5cccc(C(=O)O)c5)n(C)c4)n(C)c3)n(C)c2)n1 : 59.1
CCn1cc(C(=O)O)c(=O)c2cc(F)c(N3CCN(CC(=O)Nc4ccc(C(C)=O)cc4)CC3)cc21 : 95.9
CC(C(=O)O)N1C(N)=NNC1c1ccccc1O (stereo not drawn) : 81.9
O=C(Nc1ccc(-n2cc(-c3ccncc3)c(-c3ccc(O)c(Cl)c3)n2)cc1)c1ccc(Cl)c(Cl)c1 : 59.1

Give me growth for each of these compounds, listed below.
1. CCC(N)(C(=O)O)c1ccc(F)cc1 (stereo not drawn)
2. CCc1c2cc(Cl)ccc2n2cc(Cc3ccccc3)[nH]c(=O)c12
3. O=C(C[n+]1cccc(Br)c1)c1ccc2c(c1)CCCC2

A.
1: 112; 2: 98.2; 3: 104

Value source: PubChem BioAssay (NCI)
